# System: M07e
# Set-up: species or system AML cell lines (8); Primary HTS, single concentration about 10 uM, Cell Titer Glo viability; log10 luminescence, per cent inhibition relative to cycloheximide control
# Experimental Context: 72 h, relative to cycloheximide control, log10 luminescence; inhibitor
Where a name gives a salt, the structure may show the parent alone.
Value Type: M07e %inh (%)

compound=Cc1ccc2c(c1)c(C1=C(c3cn(C)c4ccccc34)C(=O)NC1=O)cn2C value_type="M07e %inh" units=% measured_value=21.17
compound=CCC1(CC)C(=O)NC(=O)N(C)C1=O value_type="M07e %inh" units=% measured_value=-1.141
compound="N=C(N)NCCN1CCCCCCC1 [SJ000285779-4, GUANETHIDINE SULFATE]" value_type="M07e %inh" units=% measured_value=0.2704
compound=NS(=O)(=O)c1ccc(-c2cc3ccncc3cc2OCc2ccccc2)cc1 value_type="M07e %inh" units=% measured_value=5.451
compound=O=C1Nc2ccccc2C1=C1CCc2cc(O)ccc21 value_type="M07e %inh" units=% measured_value=0.9027
compound=CN(C)CCOc1ccc(-c2cc(-c3ccc4c(c3)CCC4=NO)c(-c3ccncc3)o2)cc1 value_type="M07e %inh" units=% measured_value=14.13
compound=C#Cc1cccc(Nc2ncnc3ccc(OCCCCNCCS(C)(=O)=O)cc23)c1 value_type="M07e %inh" units=% measured_value=-0.9936
compound=NS(=O)(=O)c1cccc(-c2cc3ccncc3cc2OCc2ccccc2)c1 value_type="M07e %inh" units=% measured_value=-1.198
compound="CC(C)(C)c1ccc(C(O)CCCN2CCC(C(O)(c3ccccc3)c3ccccc3)CC2)cc1 (centres unmarked)" value_type="M07e %inh" units=% measured_value=132.8
compound=Cc1cccc(-c2n[nH]cc2-c2ccc3ncccc3n2)n1 value_type="M07e %inh" units=% measured_value=-1.053
compound=COc1cc2c(cc1Nc1nc(Nc3ccsc3C(N)=O)c3cc[nH]c3n1)N(C(=O)CN(C)C)CCC2 value_type="M07e %inh" units=% measured_value=106
compound=NC(=O)c1cc(-c2ccncc2)cc(-c2ccccc2)c1N value_type="M07e %inh" units=% measured_value=-1.265
compound=CS(=O)(=O)CCNCc1ccc(-c2ccc3ncnc(Nc4ccc(OCc5ccccc5)c(Br)c4)c3c2)o1 value_type="M07e %inh" units=% measured_value=-3.258
compound=Nc1c(C(=O)c2cccc(C#CCO)c2)cnn1-c1ccc(F)cc1 value_type="M07e %inh" units=% measured_value=1.15
